TEST: NCI Yeast Anticancer Drug Screen. Data for the mlh1 rad18 strain (AID 175)
CONDITION INFO: S. cerevisiae mlh1 rad18 strain growth inhibition; at 50.0 µM; hits give high values
Compounds without any hit were thinned out: in the full panel of roughly 79,000, 15% have a hit.
// bucketize growth inhibition: low = under 20%, middle = from 20% up to 90%, high = 90% and over

Data request: // bin(item) where item = `O=C(N/C(=C\c1ccc2c(c1)OCO2)c1nc2ccccc2s1)c1ccccc1`
Data returned: high

---

TEST: NCI Yeast Anticancer Drug Screen. Data for the bub3 strain (AID 167)
CONDITION INFO: S. cerevisiae bub3 mutant strain, at 5.0 µM (retest, dose inferred, filed as 0.5)
About 79,000 compounds went through this panel and 15% of them were active in at least one assay; those are over-represented in the sample as a whole. Calls of active or inactive are those of the source. No stated cut-off is given here; in the data, active means growth inhibition above about 70%; inactive means the rest.
Return exactly one item of y (active), n (inactive)

As a guide, the following entries are already answered.
C[N+](C)(CCCCCCOc1c(Br)cc(Br)cc1Br)Cc1ccc(Br)o1 | n
CCOC(=O)c1ccc(NC(=O)CCl)cc1 | n
N#Cc1c(-c2ccc(Cl)cc2)c2c(n(C3OC(CO)C(O)C(O)C3O)c1=S)CCCC2 (stereo unspecified) | n

Data request: Hello, I am checking results. What call was entered for `CCCCCCCCCCCCSC1=C(N)C(=O)c2ccccc2C1=O` ?
Data returned: n

Data request: Hello, I am checking results. What call was entered for `CC(C)=CC[P+](CCCCCC[P+](CC=C(C)C)(c1ccccc1)c1ccccc1)(c1ccccc1)c1ccccc1` ?
Data returned: n

---

TEST: NCI Yeast Anticancer Drug Screen. Data for the cln2 rad14 strain (AID 165);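 note: 0% = growth equal to vehicle treated cultures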
CONDITION INFO: S. cerevisiae cln2 rad14 strain, at 50.0 µM
About 79,000 compounds went through this panel and 15% of them were active in at least one assay; those are over-represented in the sample as a whole. Activity calls are given as the source filed them. Cut-off read from the data, not from the text of the source: active = growth inhibition above about 70%; inactive = the rest.
Return exactly one item of TRUE (active), FALSE (inactive)

As a guide, the following entries are already answered.
CN(C)CCC[Si]1(C)c2ccccc2CCc2ccccc21 | FALSE
Nc1ccc(S(=O)(=O)Nc2ccccc2)cc1 | FALSE
CC1=C(C(=O)Nc2cccc(C(F)(F)F)c2)C(c2ccccc2F)C(C(=O)Nc2cccc(C(F)(F)F)c2)=C(C)N1 | TRUE
OCC(O)C(O)C(/C=N/Nc1ccccc1)=N/Nc1ccccc1 (centres undefined) | FALSE
CS(=O)(=O)OCCN(CCOS(C)(=O)=O)c1ccc(C=Nc2ccc3oc(=O)ccc3c2)cc1 | FALSE

Data request: Hello, I am checking results. What call was entered for `N=C(N)c1ccc(-c2ccc(-c3ccc(C(=N)N)cc3)o2)cc1` ?
Data returned: TRUE

Data request: Hello, I am checking results. What call was entered for `Cc1cccc2c(CC(=O)O)c[nH]c12` ?
Data returned: TRUE

Data request: Hello, I am checking results. What call was entered for CCCCCC(CN(C)C)C(=O)/C=C/c1ccc(Cl)cc1 (centres undefined) ?
Data returned: TRUE

Data request: Hello, I am checking results. What call was entered for COC(=O)C1=C(/C=C/C(C)=O)NC(C)=C(C(=O)OC(C)C)C1c1ccccc1Cl (centres undefined) ?
Data returned: FALSE

---

TEST: NCI Yeast Anticancer Drug Screen. Data for the mec2-1 strain (AID 157)
CONDITION INFO: S. cerevisiae mec2-1 strain, at 5.0 µM (retest, dose inferred, filed as 0.5), hits give high values
About 79,000 compounds went through this panel and 15% of them were active in at least one assay; those are over-represented in the sample as a whole.
MEASURED PARAMETER: growth inhibition (%)
Quick reminder: number only, in %, skip the unit.

N#CC1(C#N)C2C=CC(c3coc4cccc2c34)C1(C#N)C#N (centres undefined) | 17
Cc1ccc(Nc2nc3c(s2)C(=O)c2ccccc2C3=O)c(C)c1 | 33
O=C(CC[P+](c1ccccc1)(c1ccccc1)c1ccccc1)c1ccccc1 | 6

Data request: Given `Nc1nc(-c2ccc(Cl)cc2)cs1` , state its recorded growth inhibition.
Data returned: 4

Data request: Given `O=C1C=CC(=O)C(c2ccccc2)=C1` , state its recorded growth inhibition.
Data returned: 24

Data request: Given `CCOC(=O)c1cc(C)c(O)c(C(=O)OCC)c1` , state its recorded growth inhibition.
Data returned: -12

Data request: Given `CCC[N+]1=C(/C=C/c2cc(C)c3cccnc3c2O)C(C)(C)c2ccccc21` , state its recorded growth inhibition.
Data returned: 27

Data request: Given O=[N+]([O-])c1ccccc1C1CN=NN1c1ccccc1 (centres undefined) , state its recorded growth inhibition.
Data returned: -2

Data request: Given CCOC(=O)C(=O)CC(=O)C(Br)C(Br)c1ccc(Cl)cc1 (centres undefined) , state its recorded growth inhibition.
Data returned: 85

Data request: Given `Cc1cc(O)cc(C)c1[N+](=O)[O-]` , state its recorded growth inhibition.
Data returned: 0

Data request: Given `Clc1ccc(CN2COc3c(ccc4ccccc34)C2)cc1` , state its recorded growth inhibition.
Data returned: 3

Data request: Given O=C(Nc1ccc(Cl)cc1Cl)OC(Cn1cncn1)c1ccc(Cl)cc1Cl (centres undefined) , state its recorded growth inhibition.
Data returned: 67

Data request: Given `Cc1ccc(NNC2=NC(=S)NC(=O)C2)cc1` , state its recorded growth inhibition.
Data returned: 8

Data request: Given `CCN1/C(=C/C=C/C=C\C=C\c2sc3ccc4ccccc4c3[n+]2CC)Sc2ccc3ccccc3c21` , state its recorded growth inhibition.
Data returned: 21

Data request: Given `O=c1c2cc3ccccc3cc2c(=O)n2n1CC=CC2` , state its recorded growth inhibition.
Data returned: -1

Data request: Given CC(=O)O[C@@H]1CC(C)C2CC2C2=C(C(O)OC2O)[C@@H]1C(C)CCC=C(C)C (some centres undefined) , state its recorded growth inhibition.
Data returned: 92

Data request: Given COc1cc2c(cc1O)C1C(O)C(O)C=C3CCN(C2)C31 (centres undefined) , state its recorded growth inhibition.
Data returned: 4

Data request: Given `COc1ccc(Cc2cncc3c(O)c(OC)ccc23)cc1O` , state its recorded growth inhibition.
Data returned: 0

Data request: Given CN(C)c1ccc(C(=O)C2CCCC(C)(C)C2)cc1 (centres undefined) , state its recorded growth inhibition.
Data returned: 24

Data request: Given CCCCCCC(=O)OCCN(CCOC(=O)CCCCCC)C(=O)C(C)OC(=O)CCCCCC (centres undefined) , state its recorded growth inhibition.
Data returned: 4

Data request: Given `Oc1ccc[nH]c1=S` , state its recorded growth inhibition.
Data returned: 6

Data request: Given `[O-][n+]1ccc(Br)c(/C=C/c2ccccc2)c1` , state its recorded growth inhibition.
Data returned: -5

Data request: Given `CSC(=Nc1ccc(Cl)cc1)N1CC=Cc2ccccc21` , state its recorded growth inhibition.
Data returned: -13

Data request: Given `CCOC(=O)CC[P+](Cc1ccccc1)(c1ccccc1)c1ccccc1` , state its recorded growth inhibition.
Data returned: 0

---

TEST: NCI Yeast Anticancer Drug Screen. Data for the rad50 strain (AID 155);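 note: 0% = growth of vehicle-only cultures of the same strain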
CONDITION INFO: S. cerevisiae rad50 strain growth inhibition; at 50.0 µM (retest, dose inferred, filed as 5.0)
The panel holds about 79,000 compounds, 15% with a hit somewhere; the sample as a whole holds those more often. Active and inactive are the calls of the source. Cut-off read from the data, not from the text of the source: active = growth inhibition above about 70%; inactive = the rest.
Return exactly one item of active, inactive

CCC1(O)c2ccccc2C(O)(CC)c2ccccc21 (stereo unspecified) | inactive

Data request: Hello, I am checking results. What call was entered for `COc1ccc(-c2cc(=O)c3c(C)ccnc3[nH]2)cc1` ?
Data returned: inactive

Data request: Hello, I am checking results. What call was entered for `OCCCNc1nc2c(Cl)cc(Cl)cc2c2ccccc12` ?
Data returned: inactive

Data request: Hello, I am checking results. What call was entered for `[Cl-].[La+3].[O-]/N=C(\c1ccccc1)c1ccccn1.[O-]/N=C(\c1ccccc1)c1ccccn1.[O-]/N=C(\c1ccccc1)c1ccccn1` ?
Data returned: inactive

---

TEST: NCI Yeast Anticancer Drug Screen. Data for the bub3 strain (AID 167)
CONDITION INFO: S. cerevisiae bub3 mutant strain, at 5.0 µM (retest, dose inferred, filed as 0.5), hits give high values
The panel holds about 79,000 compounds, 15% with a hit somewhere; the sample as a whole holds those more often.
MEASURED PARAMETER: growth inhibition (%)
Quick reminder: number only, in %, skip the unit.

ClCc1c(-c2ccccc2)oc(-c2ccccc2)c1CCl | 1
O=C(c1ccccc1)C(C(=O)c1ccccc1)c1ccc2ccccc2n1 | 1
CC(C)Cc1cc(O)cc2ccccc12 | 5
CCOC(=O)CC[P+](Cc1ccccc1)(c1ccccc1)c1ccccc1 | 1
COc1ccccc1NC(=O)/C(=C\N1C(=O)/C(=C/c2cc(OC)c(OC)c(OC)c2)SC1=S)C(C)=O | -21
c1ccc(-n2ncc3ccc4cccn4c32)cc1 | 17

Data request: Given O=CNC(CCCC(=O)O)Cc1cc2ccccc2c2ccccc12 (configuration not stated) , state its recorded growth inhibition.
Data returned: -8

Data request: Given `CCCCCCCCC(N)CCCCCCCC` , state its recorded growth inhibition.
Data returned: 99

Data request: Given CCCCC(Cc1ccccc1)(C(=O)O)c1ccccc1 (configuration not stated) , state its recorded growth inhibition.
Data returned: 3

Data request: Given `O=[N+]([O-])c1c(Cl)ccc2nsnc12` , state its recorded growth inhibition.
Data returned: -49

Data request: Given `O=C1CSC2(CCN(CCCN3c4ccccc4Sc4ccc(Cl)cc43)CC2)N1` , state its recorded growth inhibition.
Data returned: -2

Data request: Given CCC(c1ccccc1)N1C(=O)c2ccccc2S1(=O)=O (configuration not stated) , state its recorded growth inhibition.
Data returned: 23
